pIC50: −log10 of the molar value.
Endpoint summary: pIC50, system: Tyrosine-protein kinase JAK2 (Homo sapiens), multiple sources combined.

COc1cnc(Nc2cccc(C(=O)N3CC[C@H](C#N)C3)c2)nc1-c1cnn(C(CC#N)C2CC2)c1 (mixture of isomers) | > 7.00
CCn1nccc1NC(=O)N1CCC(N2CC(CC#N)(n3cc(-c4ncnc5[nH]ccc45)cn3)C2)CC1 | 7.00 to 7.30
CCN(c1ccc(C)cc1CNc1nc(-c2cc(F)c(O)cc2CC(F)(F)F)cc2[nH]nc(C(N)=O)c12)S(C)(=O)=O | 6.89

Request: Notebook entry, Tyrosine-protein kinase JAK2 (Homo sapiens) assay: pIC50 of `C[C@H](NC(=O)c1ccc(N2CC(CC#N)(n3cc(-c4ncnc5[nH]ccc45)cn3)C2)c(F)c1)C1CC1` = ?
Result: ≥ 8.00

Request: Param item: `Cc1cc2ccc1NC(=O)c1ccc(c(N)c1)-c1ccnc(n1)Nc1ccc(OC3CC3)c(c1)CO2`
Result: 6.00 to 7.00

Request: How about `C[C@@H](O)C(=O)N1CCC(Oc2ccc(-c3ncnc(Nc4ccc(N5CCN(C6COC6)CC5)cc4)n3)cc2C#N)CC1` ?
Result: 6.20

Request: Consider next the compound `N#CCC1(n2ccc(-c3ncnc4[nH]ccc34)c2)CN(C2CCN(C(=O)c3cccc(OC(F)(F)F)c3F)CC2)C1` in the same way.
Result: 7.30 to 8.00
